Target: Protein farnesyltransferase (Homo sapiens, UniProt P49354+P49356)
Assay: Inhibition of human recombinant FTase by fluorescent-based assay
Type: protein-complex assay
Conditions: read-out: IC50
Experimental Endpoint: pIC50
Please treat pIC50 as minus the base-10 logarithm of the molar concentration.

Data request: So what's the measured pIC50 for this one? CC(C)=CCC/C(C)=C/CC/C(C)=C/C=C/C(=O)NC(C(=O)O)C(=O)O
Data returned: 5.00

Data request: So what's the measured pIC50 for this one? CC(C)=CCC/C(C)=C/CC/C(C)=C/C(c1nccn1C)C(CC(=O)O)C(=O)O (stereo not drawn)
Data returned: 4.92

Data request: So what's the measured pIC50 for this one? CC(C)=CCC/C(C)=C/CC/C(C)=C/CC(=O)CCCC(=O)O
Data returned: 4.22

Data request: So what's the measured pIC50 for this one? CSCC[C@H](NC(=O)[C@H](Cc1ccccc1)NC(=O)[C@@H](NCc1cnc(CCCC(CC(=O)O)C(=O)O)n1C)C(C)C)C(=O)O (stereo partly drawn)
Data returned: 4.22

Data request: So what's the measured pIC50 for this one? CC(C)=CCC/C(C)=C/CC/C(C)=C/COC(=O)CCC(=O)O
Data returned: 3.89

Data request: So what's the measured pIC50 for this one? CCCCCCCCCCCCCC/C(C(=O)O)=C(\C)C(=O)O [CHAETOMELLIC ACID A]
Data returned: 6.76

Data request: So what's the measured pIC50 for this one? CC(C)=CCC/C(C)=C/CC/C(C)=C/CC(CCCc1nccn1C)(C(=O)O)C(=O)O
Data returned: 4.68

Data request: So what's the measured pIC50 for this one? CC(C)=CCC/C(C)=C/CC/C(C)=C/CCC(=O)NC(C(=O)O)C(=O)O
Data returned: 4.22

Data request: So what's the measured pIC50 for this one? CC(C)=CCC/C(C)=C/CC/C(C)=C/C/C=C/C(=O)O
Data returned: 3.89

Data request: So what's the measured pIC50 for this one? CC(C)=CCC/C(C)=C/CC/C(C)=C/COC(C(=O)O)C(=O)O
Data returned: 6.06

Data request: So what's the measured pIC50 for this one? CC(C)=CCC/C(C)=C/CC/C(C)=C/CCC(=O)NS(=O)(=O)O
Data returned: 4.07

Data request: So what's the measured pIC50 for this one? CC(C)=CCC/C(C)=C/CC/C(C)=C/CC(C(=O)O)C(=O)O
Data returned: 6.05

Data request: So what's the measured pIC50 for this one? CC(C)=CCC/C(C)=C/CC/C(C)=C/CCCC(=O)O
Data returned: 3.77

Data request: So what's the measured pIC50 for this one? CCOC(=O)C(C/C=C(\C)CC/C=C(\C)CCC=C(C)C)(CCCc1ncc(CN[C@H](C(=O)N[C@@H](Cc2ccccc2)C(=O)N[C@@H](CCSC)C(=O)O)C(C)C)n1C)C(=O)O (stereo partly drawn)
Data returned: 6.62

Data request: So what's the measured pIC50 for this one? CCOC(=O)C(C/C=C/c1ncc(CN[C@H](C(=O)N[C@@H](Cc2ccccc2)C(=O)N[C@@H](CCSC)C(=O)O)C(C)C)n1C)(C/C=C(\C)CC/C=C(\C)CCC=C(C)C)C(=O)O (stereo partly drawn)
Data returned: 6.19
